target: Human BOAT1 (Homo sapiens, UniProt Q695T7); construct: expressed in transfected cells; assay: hBOAT1 inhibitory test (phenylalanine uptake); assay type: cell-based; settings: Human BOAT1 stable expression CHO cells; [3H]-L-phenylalanine uptake, phenylalanine 0.25 mM; radioactivity after 100 to 200 min; read-out: hB0AT1 IC50
Sequence (Q695T7 whole entry): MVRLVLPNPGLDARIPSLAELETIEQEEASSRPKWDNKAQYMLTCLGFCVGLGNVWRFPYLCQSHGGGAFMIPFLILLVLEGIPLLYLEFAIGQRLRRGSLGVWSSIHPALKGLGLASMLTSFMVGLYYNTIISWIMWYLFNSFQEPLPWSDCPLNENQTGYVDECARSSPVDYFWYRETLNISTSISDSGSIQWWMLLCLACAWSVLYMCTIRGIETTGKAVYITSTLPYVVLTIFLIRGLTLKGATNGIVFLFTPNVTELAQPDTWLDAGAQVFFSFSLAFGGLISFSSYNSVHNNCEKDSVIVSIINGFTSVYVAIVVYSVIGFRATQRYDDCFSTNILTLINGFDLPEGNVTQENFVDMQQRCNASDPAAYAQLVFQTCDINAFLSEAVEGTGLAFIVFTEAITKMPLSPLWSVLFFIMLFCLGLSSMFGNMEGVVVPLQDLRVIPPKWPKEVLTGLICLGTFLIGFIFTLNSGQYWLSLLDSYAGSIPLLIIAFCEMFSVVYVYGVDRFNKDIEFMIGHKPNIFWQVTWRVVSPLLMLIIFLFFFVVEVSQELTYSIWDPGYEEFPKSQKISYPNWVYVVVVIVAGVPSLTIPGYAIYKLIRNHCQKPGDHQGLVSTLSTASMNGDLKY
# reported log10 of IC50; entries follow
readoutType: log10 of IC50 (log10 of the value in µM)

compound: CC(C)(C)OC(=O)CCc1ccc2c(c1)CCN(C(=O)CNC(=O)/C=C/c1ccc(C(F)(F)F)cc1)C2
log10 of IC50: 0.00
--
compound: N#Cc1cc2c(cc1CC(=O)O)CCN(C(=O)CNC(=O)/C=C/c1ccc(I)cc1)C2
log10 of IC50: -0.97
--
compound: O=C(O)CCCN1CCN(C(=O)CNC(=O)/C=C/c2ccc(C(F)(F)F)cc2)C(c2ccccc2)C1 (centres unmarked)
log10 of IC50: -0.61
--
compound: O=C(O)Cc1ncc2c(n1)CCN(C(=O)CNC(=O)/C=C/c1ccc(C(F)(F)F)cc1)C2
log10 of IC50: -0.65
--
compound: O=C(O)CCCN1CCN(C(=O)CNC(=O)/C=C/c2ccc(C(F)(F)F)cc2F)C(c2ccccc2F)C1 (centres unmarked)
log10 of IC50: -0.71
--
compound: O=C(O)Cc1ccc2c(c1)CCN(C(=O)CNC(=O)/C=C/c1ccc(Cl)cc1)C2
log10 of IC50: -0.77
--
compound: Cc1ccc([C@H]2CN(CCCC(=O)O)[C@H](C)CN2C(=O)CNC(=O)/C=C/c2ccc(C(F)(F)F)cc2F)cc1
log10 of IC50: -1.19
--
compound: COC(=O)c1cccc(C2CCCN(C(=O)CNC(=O)/C=C/c3ccc(C(F)(F)F)cc3F)C2)c1 (centres unmarked)
log10 of IC50: 0.22
